biological target: human EHMT2 913-1193 (Homo sapiens); construct: recombinant purified human EHMT2 913-1193, Viva; purchased Viva; assay: biochemical; settings: recombinant human EHMT2 913-1193, histone H3 1-15 peptide, 3H-SAM, balanced conditions; read-out: EHMT2 PEP (IC50 μM)
Sequence (Q96KQ7 913-1193): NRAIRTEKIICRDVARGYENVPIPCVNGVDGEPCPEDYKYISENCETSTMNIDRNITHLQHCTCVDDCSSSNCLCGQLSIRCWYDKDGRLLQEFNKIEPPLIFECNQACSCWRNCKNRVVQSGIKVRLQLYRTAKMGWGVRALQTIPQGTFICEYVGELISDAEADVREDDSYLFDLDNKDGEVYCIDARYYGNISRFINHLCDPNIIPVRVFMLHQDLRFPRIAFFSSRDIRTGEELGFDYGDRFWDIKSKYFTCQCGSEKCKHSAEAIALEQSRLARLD
Examples of molecules with documented IC50 follow.

molecule: CNc1nc2cc(OC[C@H](O)CN3CCCC3)c(OC)cc2n1C1CCCC1
system_under_test: human EHMT2 913-1193 (Homo sapiens)
observed_measurement: < 0.1 µM

Consider CNc1nc2cc(CNCCN3CCCC3)c(C)cc2n1C(C)C . Its measured IC50 is 1 to 10 µM

Consider COc1cc2c(cc1OCCCN1CCCC1)N=C(N)C21CCOCC1 . Its measured IC50 is < 0.1 µM

Consider CNc1nc2cc(OCCCN3CCCC3)c(OC)cc2n1C(C)C . Its measured IC50 is < 0.1 µM

----------
molecular target: EHMT1 (Homo sapiens); experiment: EHMT1 PEP; type: biochemical
Examples of compounds with documented IC50 follow.

compound: COc1cc2c(cc1OCC(C)CN1CCCC1)N=C(N)C21CCC1 (stereo not drawn) [Compound 65]
IC50: 0.1 to 1 µM
//
compound: COc1cc2c(cc1OCCCN1CCCC1)nc(C)n2C1CCCC1 [Compound 23]
IC50: 1 to 10 µM

Consider COc1cc2c(cc1OCCCN1CCCC1)N=C(N)C21CCCC1 [Compound 56] . Its measured IC50 is < 0.1 µM

Consider CNc1nc2cc(CNCCN3CCCC3)c(OC)cc2n1C(C)C [Compound 40] . Its measured IC50 is < 0.1 µM

Consider CNc1nc2cc(CNCCN3CCCC3)c(OC)cc2n1C [Compound 37] . Its measured IC50 is < 0.1 µM

Consider NC1=Nc2cc(OCCCN3CCCC3)c(-c3ccncc3)cc2C12CCC2 [Compound 136] . Its measured IC50 is 1 to 10 µM

Consider COc1cc2c(cc1OCCCN(C)C)N=C(N)C21CCC1 [Compound 53] . Its measured IC50 is < 0.1 µM

Consider COCCNC1=Nc2cc(C#CCN3CCCCC3)c(OC)cc2C12CCC2 [Compound 99] . Its measured IC50 is < 0.1 µM

Consider CNC1=Nc2cc(C#CC(C)N3CC4CC4C3)c(OC)cc2C12CCC2 (stereo not drawn) [Compound 89] . Its measured IC50 is < 0.1 µM

----------
Biological target: EHMT1 (Homo sapiens, UniProt Q9H9B1)
Sequence (Q9H9B1 1-1298): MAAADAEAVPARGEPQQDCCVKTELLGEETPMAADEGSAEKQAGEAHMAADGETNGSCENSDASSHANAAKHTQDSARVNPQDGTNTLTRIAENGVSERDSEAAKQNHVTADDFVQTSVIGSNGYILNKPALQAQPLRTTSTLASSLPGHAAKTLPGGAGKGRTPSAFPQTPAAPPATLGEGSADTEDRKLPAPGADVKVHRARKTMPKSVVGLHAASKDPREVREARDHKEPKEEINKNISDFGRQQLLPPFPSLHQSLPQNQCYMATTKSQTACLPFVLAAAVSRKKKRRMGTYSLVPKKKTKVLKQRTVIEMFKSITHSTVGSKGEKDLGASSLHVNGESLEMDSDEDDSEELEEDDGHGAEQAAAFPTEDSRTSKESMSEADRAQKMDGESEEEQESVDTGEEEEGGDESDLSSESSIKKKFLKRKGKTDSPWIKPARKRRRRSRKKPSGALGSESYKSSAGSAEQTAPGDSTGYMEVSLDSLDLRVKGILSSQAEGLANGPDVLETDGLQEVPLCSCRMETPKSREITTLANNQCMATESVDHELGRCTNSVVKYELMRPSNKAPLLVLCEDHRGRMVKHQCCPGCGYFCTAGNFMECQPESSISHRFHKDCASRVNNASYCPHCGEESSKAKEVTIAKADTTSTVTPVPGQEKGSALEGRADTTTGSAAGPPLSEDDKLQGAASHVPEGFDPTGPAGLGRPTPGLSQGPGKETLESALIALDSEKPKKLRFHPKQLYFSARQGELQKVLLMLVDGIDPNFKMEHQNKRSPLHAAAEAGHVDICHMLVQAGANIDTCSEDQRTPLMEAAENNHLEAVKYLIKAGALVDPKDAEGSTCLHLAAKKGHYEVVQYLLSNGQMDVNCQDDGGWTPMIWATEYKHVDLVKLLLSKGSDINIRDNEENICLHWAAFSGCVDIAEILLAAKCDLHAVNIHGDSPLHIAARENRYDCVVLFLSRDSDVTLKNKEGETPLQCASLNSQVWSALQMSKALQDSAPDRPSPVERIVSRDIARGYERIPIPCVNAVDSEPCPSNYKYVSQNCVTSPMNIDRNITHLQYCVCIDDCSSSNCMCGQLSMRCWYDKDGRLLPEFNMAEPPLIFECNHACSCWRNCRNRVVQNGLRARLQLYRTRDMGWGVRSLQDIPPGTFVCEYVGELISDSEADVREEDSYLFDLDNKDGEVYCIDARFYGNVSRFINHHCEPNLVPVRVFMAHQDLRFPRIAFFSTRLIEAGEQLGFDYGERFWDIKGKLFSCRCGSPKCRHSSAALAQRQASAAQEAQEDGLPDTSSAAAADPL
Test: EHMT1 PEP
Assay type: biochemical
measure_name: IC50

compound: COc1cc2c(cc1C#CCN1CCCC1)N=C(N)C21CCC1 [Compound 24]
IC50: < 0.1 µM
--
compound: CNc1nc2cc(OCCCN3CCCC3)c(OC)cc2n1C1CCOCC1 [Compound 13]
IC50: < 0.1 µM
--
compound: COc1cc2c(cc1OCCCN1CCCC1)nc(NCC(F)(F)F)n2C [Compound 12]
IC50: 1 to 10 µM
--
compound: CCN1CC(COc2cc3nc(N)n(C4CCCC4)c3cc2OC)C1 [Compound 10]
IC50: < 0.1 µM
--
compound: CNC1=Nc2cc(C#C[C@H](C)N3CCCCC3)c(OC)cc2C12CCC2 [Compound 93]
IC50: < 0.1 µM

Consider CNc1nc2cc(OCCCN3CCCC3)c(OC)cc2n1C [Compound 8] . Its measured IC50 is < 0.1 µM

Consider CNC1=Nc2cc(C#CC(C)N3CCCCC3)c(OC)cc2C12CCC2 (stereo not drawn) [Compound 92] . Its measured IC50 is < 0.1 µM

Consider NC1=Nc2cc(OCCCN3CCCC3)c(OCC3CCCCC3)cc2C12CCC2 [Compound 61] . Its measured IC50 is > 10 µM

Consider CNC1=Nc2cc(C#CCN3CC4CC4C3)c(OC)cc2C12CCC2 (stereo not drawn) [Compound 87] . Its measured IC50 is < 0.1 µM
